From: ChEMBL document CHEMBL4513216

assay-comment: Toxicity liver stage against HepG2, at 10uM
Type: cell-based
Set-up: test concentration 10 uM, cell line HepG2-A16-CD81EGFP
condition-set: human, HepG2-A16-CD81EGFP cells; read-out: INHIBITION
Known cytotoxicity at 10 µM of a selection of compounds
property-measured: cytotoxicity at 10 µM (%)

| compound | unit-spec | val |
| --- | --- | --- |
| CNC(=O)CCCNCc1c(C)nn(CC(C)C)c1N(C)C | % | -2.51 |
| CCn1c(C2CCN(C(=O)CCc3cc(Cl)no3)CC2)nn(C)c1=O | % | -7.09 |
| COc1cccc(-c2noc(-c3ccc(NCC4CC4)nc3)n2)c1OC | % | 6.65 |
| Cc1ccnc(C2CCN(C(=O)c3cnn(C)c3)C2)n1 (stereo unspecified) | % | -15 |
| COc1ccc2nc(C[C@@H]3C[C@@H](C(C)C)[C@H](CN(C)C)C=C3C)[nH]c2n1 | % | 5.09 |
| CCCN(CC(=O)NC)C(=O)c1ccc(-c2nc(C)cs2)cc1 | % | -20.8 |

* * *

Known cytotoxicity at 10 µM of a selection of compounds
assay-comment: Toxicity liver stage against HepG2, at 10uM
Type: cell-based
Design: test concentration 10 uM, cell line HepG2-A16-CD81EGFP
condition-set: human, HepG2-A16-CD81EGFP cells; read-out: INHIBITION

| compound | unit-spec | cytotoxicity at 10 µM |
| --- | --- | --- |
| Cc1nc(CN2CCCN(C(=O)c3ccccn3)CC2)oc1C | % | 0.289 |
| O=S(=O)(c1ccccc1Cl)N1CCCC(c2ncc[nH]2)C1 (stereo unspecified) | % | 5.48 |
| CCC(C)(CC(=O)OC)NC(=O)c1ccc2[nH]ccc2c1 (stereo unspecified) | % | -2.8 |
| Cc1nc(CN2CCC(c3cc(N4CCCC4)ncn3)CC2)cs1 | % | -159 |
| COCc1cn(C2CCN(Cc3ccc(Cl)s3)CC2)nn1 | % | 5.43 |
| CNC(C)Cc1ccccc1Sc1ccc(O)cc1 (stereo unspecified) | % | 2.73 |

* * *

Known cytotoxicity at 10 µM of a selection of molecules
assay-comment: Toxicity liver stage against HepG2, at 10uM
Format: cell-based
Set-up: test concentration 10 uM, cell line HepG2-A16-CD81EGFP
condition-set: human, HepG2-A16-CD81EGFP cells; read-out: INHIBITION

| molecule | unit-spec | cytotoxicity at 10 µM |
| --- | --- | --- |
| CCc1ncc2c(n1)CN(C(=O)c1c(C)[nH]c(C(C)=O)c1C)C2 | % | -45.9 |
| O=C(Cc1cccs1)N1Cc2nc(CN3CCCC3)oc2C1 | % | -2.87 |
| O=C1CC(c2ncc(-c3ccc4c(c3)OCCO4)[nH]2)CN1C1CC1 (centres undefined) | % | -4.62 |
| Cc1cccc(S(=O)(=O)NCC(C)(C)CC(C)O)c1C#N (centres undefined) | % | -1.37 |
| COc1cc(C2SCC(=O)Nc3[nH]ncc32)cc2c1OCO2 (centres undefined) | % | 5.28 |
| CCc1nsc(NC2CCCn3nc(COC)nc32)n1 (centres undefined) | % | 14.1 |
| COc1ccc(-c2noc(C3CCS(=O)(=O)C3)n2)cc1OC (centres undefined) | % | 5.4 |
| Cc1nc(N2CCOCC2)nc2c1CCN(C(=O)NC1CCCC1)CC2 | % | 3.41 |
| CC(NC(=O)CCCc1nc(C(C)(C)C)no1)c1nnc2n1CCC2 (centres undefined) | % | -0.527 |
| Cc1noc([C@@H](C)NCc2ccc(F)cc2)c1C(=O)O | % | -5.57 |
| CCOc1ccccc1C(CC(=O)Nc1ccc(C)cn1)NC(C)=O (centres undefined) | % | -10.7 |
| O=C(COc1ccc2c(c1)CCC2)NS(=O)(=O)c1cncc(Br)c1 | % | -5.82 |
| CC(Oc1ccc2c(c1)OCO2)C(=O)N1CCC(N2CCCC2)CC1 (centres undefined) | % | -4.63 |
| Clc1cccc(-c2noc(CCN3CCN(c4ccncc4)CC3)n2)c1 | % | 24 |
| Cc1cc(N2CCCC(O)(CN(C)C)CC2)nc(-c2ccccc2)n1 (centres undefined) | % | -9.41 |
| CC(C)CC(=O)N1CC[C@H]2N(C)CC[C@@]2(C(=O)Nc2cccnc2)CC1 | % | -96.9 |
| COc1ccc(-c2c(C)nn3c(=N)c(C#N)n[nH]c23)cc1 | % | -8.26 |
| Cc1ccc(NC2CCN(C(=O)Cc3cccc(F)c3)CC2)nn1 | % | -5.23 |
| O=C(c1ccccc1)N1CCCC2(CCN2Cc2cccc(F)c2)C1 (centres undefined) | % | -121 |
| Cc1cc(C)cc(N2CCN(Cc3cccc(CCN)c3)CC2=O)c1 | % | 3.32 |
| CC1CCN(CCNC(=O)C2CCN(C(=O)C3CC3)CC2)CC1 | % | 6.86 |
| CSc1ccc(CNC(=O)C2CC(=O)N(C(C)(C)C)C2)cc1 (centres undefined) | % | 4.69 |
| O=C(CCNC(=O)c1ccccc1)Nc1ccncc1 | % | -2.36 |
| CC(=O)N1CCC(c2nc(Cc3ccccc3)no2)C1 (centres undefined) | % | 5.15 |
